The measurements presented in this section are drawn from ChEMBL document CHEMBL4616673.

Assay: Half life in mouse liver microsomes at 1 uM in presence of NADPH by LC-MS analysis
Format: ADME, Microsome
Details: liver microsomes
Endpoint: half-life at 1 µM (min)
// note: answer is a bare numeric in min

# lookup: half-life at 1 µM of "O=C1c2ccccc2C(=O)c2c1nnn2-c1cc(F)c(-c2ccccc2F)c(F)c1"
37

====

System: A-375
Assay: Antiproliferative activity against human A375 cells assessed as reduction in cell viability measured after 48 hrs by MTT assay
Type: functional, cell-based
Conditions: Homo sapiens, A-375, 48 h
# maps each entry to its log10 IC50
Values reflect log10 of reported IC50 (nM).

Observe how each entry below is paired with its result.
> print(dat)
                                   molecule  test.target  reported.value
1  OC1c2ccccc2C(O)c2c1nnn2-c1cc(F)c(-c2ccccc2F)c(F)c1 (stereo not given)        A-375            2.20
2  O=C1c2ccccc2C(=O)c2c1nnn2-c1cc(F)c(-c2cccc(F)c2)c(F)c1        A-375            2.28
3  O=C1c2ccccc2C(=O)c2c1nnn2-c1ccc(-c2ccccc2F)cc1        A-375            3.47
4  O=C1c2ccccc2C(=O)c2c1nnn2-c1cc(F)c(-c2cccc(CO)c2F)c(F)c1        A-375            1.48

# lookup: log10 IC50 of "O=C1c2ccccc2C(=O)c2c1nnn2-c1cc(F)c(-c2cccc(CO)c2)c(F)c1"
1.48

# lookup: log10 IC50 of "O=C1c2ccccc2C(=O)c2c1nnn2-c1ccc(-c2ccccc2)cc1"
3.77

# lookup: log10 IC50 of "COc1cc(-n2nnc3c2C(=O)c2ccccc2C3=O)ccc1-c1ccccc1"
1.00

# lookup: log10 IC50 of "O=C1c2ccccc2C(=O)c2c1nnn2-c1cc(F)c(-c2ccc(F)cc2)c(F)c1"
3.20

# lookup: log10 IC50 of "Nc1cccc(-c2ccc(-n3nnc4c3C(=O)c3ccccc3C4=O)cc2)c1"
2.40

====

Experiment: Half life in Sprague-Dawley rat at 25 mg/kg, po administered via gavage by LC-MS analysis
Format: ADME, organism-based
Details: Sprague-Dawley, in vivo
Endpoint: half-life (h)
// note: answer is a bare numeric in h

# lookup: half-life of "O=C1c2ccccc2C(=O)c2c1nnn2-c1cc(F)c(-c2ccccc2F)c(F)c1"
8.83

====

# maps each entry to its solubility
Test: Solubility of the compound in PBS
Format: physicochemical

# lookup: solubility of "O=C1c2ccccc2C(=O)c2c1nnn2-c1cc(F)c(-c2ccccc2F)c(F)c1"
33.8 µg/mL

====

Test: Competitive inhibition of Plasmodium falciparum DHODH
Endpoint: pKi
Field pKi (float): negative decimal logarithm of the concentration in molar.

# lookup: pKi of O=C1C(O)=C([C@H]2CC[C@H](c3ccc(Cl)cc3)CC2)C(=O)c2ccccc21 [ATOVAQUONE]
4.57

====

Target: Dihydroorotate dehydrogenase (quinone), mitochondrial (Homo sapiens, UniProt Q02127)
Sequence (Q02127 whole entry): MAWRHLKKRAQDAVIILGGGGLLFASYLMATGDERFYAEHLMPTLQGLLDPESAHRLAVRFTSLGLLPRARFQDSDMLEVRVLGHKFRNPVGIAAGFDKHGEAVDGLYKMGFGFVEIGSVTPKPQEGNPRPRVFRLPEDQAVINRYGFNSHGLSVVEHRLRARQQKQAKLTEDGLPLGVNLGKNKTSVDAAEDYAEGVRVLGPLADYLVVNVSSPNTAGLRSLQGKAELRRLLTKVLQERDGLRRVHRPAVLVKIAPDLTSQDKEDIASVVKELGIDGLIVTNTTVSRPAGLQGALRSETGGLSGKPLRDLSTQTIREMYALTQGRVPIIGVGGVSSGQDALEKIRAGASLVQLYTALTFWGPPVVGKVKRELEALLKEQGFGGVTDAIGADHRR
Assay: Inhibition of human DHODH using dihydroorotate as substrate and CoQ10 as co-substrate preincubated for 30 mins followed by substrate addition by DCIP coupled microplate reader assay
pIC50: −log10 of the molar value.
Use satisfied when the recorded pIC50 is no lower than 7; use not satisfied when it is lower.

> print(dat)
                                   compound      group
1  O=C1c2ccccc2C(=O)c2c1nnn2-c1ccc(-c2ccccc2)cc1  satisfied

Given the entry "O=C1CCCc2c1nnn2-c1cc(F)c(-c2ccccc2F)c(F)c1" , answer whether its pIC50 meets or surpasses 7.
not satisfied

Given the entry "O=C1c2ccccc2C(=O)c2c1nnn2-c1ccc(-c2cncnc2)cc1" , answer whether its pIC50 meets or surpasses 7.
not satisfied

Given the entry "O=C1c2ccccc2C(=O)c2c1nnn2-c1cc(F)c(-c2ccc(F)cc2)c(F)c1" , answer whether its pIC50 meets or surpasses 7.
satisfied

Given the entry "O=C1c2ccccc2C(=O)c2c1nnn2-c1ccccc1C(F)(F)F" , answer whether its pIC50 meets or surpasses 7.
not satisfied

Given the entry "Nc1ccccc1-c1ccc(-n2nnc3c2C(=O)c2ccccc2C3=O)cc1" , answer whether its pIC50 meets or surpasses 7.
satisfied

Given the entry "O=C1c2ccccc2C(=O)c2c1nnn2-c1ccc(-c2cccc(F)c2)cc1" , answer whether its pIC50 meets or surpasses 7.
satisfied

Given the entry "O=C1c2ccccc2C(=O)c2c1nnn2-c1ccc(N2CCOCC2)nc1" , answer whether its pIC50 meets or surpasses 7.
not satisfied

Given the entry CC(C)C1CC(=O)c2nnn(-c3cc(F)c(-c4ccccc4F)c(F)c3)c2C1 (configuration not stated) , answer whether its pIC50 meets or surpasses 7.
not satisfied

Given the entry "O=C1c2ccc(O)cc2C(=O)c2c1nnn2-c1cc(F)c(-c2ccccc2F)c(F)c1" , answer whether its pIC50 meets or surpasses 7.
not satisfied

====

# maps each entry to its pIC50
Biological target: Dihydroorotate dehydrogenase (quinone), mitochondrial (Homo sapiens, UniProt Q02127)
Test: Inhibition of human DHODH using dihydroorotate as substrate and CoQ10 as co-substrate preincubated for 30 mins followed by substrate addition by DCIP coupled microplate reader assay
Field pIC50 (float): negative decimal logarithm of the concentration in molar.

> print(dat)
                                   molecule  reported.value
1  O=C1c2ccc(F)cc2C(=O)c2c1nnn2-c1cc(F)c(-c2ccccc2F)c(F)c1            6.82

GET /values?readout=pIC50&system=Dihydroorotate dehydrogenase (quinone), mitochondrial (Homo sapiens, UniProt Q02127)&item= "CN(C)c1cccc(-c2c(F)cc(-n3nnc4c3C(=O)c3ccccc3C4=O)cc2F)c1"
9.30

GET /values?readout=pIC50&system=Dihydroorotate dehydrogenase (quinone), mitochondrial (Homo sapiens, UniProt Q02127)&item= "O=C1c2ccccc2C(=O)c2c1nnn2-c1ccc(-c2ccccc2O)cc1"
6.64

====

Experiment: Solubility of the compound in PBS
Assay type: physicochemical
# maps each entry to its solubility

Observe how each entry below is paired with its result.
> print(dat)
                        structure.as.smiles  reported.value
1  Nc1cccc(-c2ccc(-n3nnc4c3C(=O)c3ccccc3C4=O)cc2)c1      < 10 µg/mL
2  O=C1c2ccccc2C(=O)c2c1nnn2-c1cc(F)c(-c2cccc(CO)c2F)c(F)c1      17.6 µg/mL
3  CN(C)c1cccc(-c2c(F)cc(-n3nnc4c3C(=O)c3ccccc3C4=O)cc2F)c1      < 10 µg/mL
4  COC(=O)Cc1cccc(-c2c(F)cc(-n3nnc4c3C(=O)c3ccccc3C4=O)cc2F)c1      < 10 µg/mL
5  COc1cc(-n2nnc3c2C(=O)c2ccccc2C3=O)ccc1-c1ccccc1      15.4 µg/mL
6  COCc1cccc(-c2c(F)cc(-n3nnc4c3C(=O)c3ccccc3C4=O)cc2F)c1      < 10 µg/mL
7  O=C1c2ccccc2C(=O)c2c1nnn2-c1ccc(-c2ccccc2F)cc1      < 10 µg/mL

Consider the record given below.
# lookup: solubility of "Cc1c(-c2ccc(-c3ccccc3F)cc2)nc2ccc(F)cc2c1C(=O)O"
75.2 µg/mL

====

Biological target: Dihydroorotate dehydrogenase (quinone), mitochondrial (Homo sapiens)
Experiment: Inhibition of human DHODH using dihydroorotate as substrate and CoQ10 as co-substrate preincubated for 30 mins followed by substrate addition by DCIP coupled microplate reader assay
# maps each entry to its IC50

Observe how each entry below is paired with its result.
> print(dat)
                        structure.as.smiles                               test.target  reported.value
1  O=C1c2ccccc2C(=O)c2c1nnn2-c1ccc(-c2cccnc2)cc1  Dihydroorotate dehydrogenase (quinone), mitochondrial (Homo sapiens)          422 nM
2        O=C1c2ccccc2C(=O)c2c1nnn2-c1ccncc1  Dihydroorotate dehydrogenase (quinone), mitochondrial (Homo sapiens)       > 1000 nM
3  O=C1c2ccccc2C(=O)c2c1nnn2-c1ccc(-c2cc(C(F)(F)F)cc(C(F)(F)F)c2)cc1  Dihydroorotate dehydrogenase (quinone), mitochondrial (Homo sapiens)       > 1000 nM
4  O=C(c1ccccc1)c1cn(-c2cc(F)c(-c3ccccc3F)c(F)c2)nn1  Dihydroorotate dehydrogenase (quinone), mitochondrial (Homo sapiens)       > 1000 nM
5  O=C1c2ccccc2C(=O)c2c1nnn2-c1cc(F)c(-c2cccc(F)c2)c(F)c1  Dihydroorotate dehydrogenase (quinone), mitochondrial (Homo sapiens)          2.7 nM

# lookup: IC50 of "O=C1c2ccccc2C(=O)c2c1nnn2-c1ccc2ccccc2c1"
> 1000 nM

# lookup: IC50 of "N#Cc1cccc(-n2nnc3c2C(=O)c2ccccc2C3=O)c1"
> 1000 nM

====

Target: Dihydroorotate dehydrogenase (quinone), mitochondrial (Homo sapiens, UniProt Q02127)
Assay: Inhibition of human DHODH using dihydroorotate as substrate and CoQ10 as co-substrate preincubated for 30 mins followed by substrate addition by DCIP coupled microplate reader assay
# maps each entry to its pIC50
Field pIC50 (float): negative decimal logarithm of the concentration in molar.

> print(dat)
                                   compound                               test.target  reported.value
1  COC(=O)c1cccc(-c2ccc(-n3nnc4c3C(=O)c3ccccc3C4=O)cc2)c1  Dihydroorotate dehydrogenase (quinone), mitochondrial (Homo sapiens, UniProt Q02127)            6.26
2  COc1cccc(-c2c(F)cc(-n3nnc4c3C(=O)c3ccccc3C4=O)cc2F)c1  Dihydroorotate dehydrogenase (quinone), mitochondrial (Homo sapiens, UniProt Q02127)            8.05
3  O=C1c2ccccc2C(=O)c2c1nnn2-c1ccc(-c2ccccc2F)cc1  Dihydroorotate dehydrogenase (quinone), mitochondrial (Homo sapiens, UniProt Q02127)            8.35
4  COCc1cccc(-c2c(F)cc(-n3nnc4c3C(=O)c3ccccc3C4=O)cc2F)c1  Dihydroorotate dehydrogenase (quinone), mitochondrial (Homo sapiens, UniProt Q02127)            8.80
5  O=C1c2ccccc2C(=O)c2c1nnn2-c1cc(F)c(-c2ccccc2F)c(F)c1  Dihydroorotate dehydrogenase (quinone), mitochondrial (Homo sapiens, UniProt Q02127)            8.35
6  COc1cc(-n2nnc3c2C(=O)c2ccccc2C3=O)ccc1-c1ccccc1  Dihydroorotate dehydrogenase (quinone), mitochondrial (Homo sapiens, UniProt Q02127)            8.39

Consider the record given below.
GET /values?readout=pIC50&system=Dihydroorotate dehydrogenase (quinone), mitochondrial (Homo sapiens, UniProt Q02127)&item= "O=C1c2ccccc2C(=O)c2c1nnn2-c1cc(F)c(-c2cccc(CO)c2F)c(F)c1"
8.92
